Exercise: state measured conversion to 1,5-cz-[Ln(Lig)], Er^III for each of the compounds provided.
- Assay Procedure: Formation of 1,5-cz-[Ln(Lig)] from Lig and Ln^III ions (metal dependent click-zip), MOPS/NaOH buffer pH 7.0, analytical HPLC (Charts 1, 2)
- Protocol Conditions: Er^III; after 1 week at 80° C.; MOPS/NaOH buffer pH 7.0
One number for each entry, in %.

For orientation, consider the following solved cases.
CC(C)(N)C#Cc1cccc(CN2CCN(CC(=O)O)CCN(Cc3cc(-c4ccccc4)cc(CN=[N+]=[N-])n3)CCN(CC(=O)O)CC2)n1 | 88
[N-]=[N+]=NCc1cc(-c2ccccc2)cc(CN2CCN(CC(=O)O)CCN(Cc3cccc(C#CCN)n3)CCN(CC(=O)O)CC2)n1 | 91

For the 7 compounds below, give their conversion to 1,5-cz-[Ln(Lig)], Er^III values.
1. [N-]=[N+]=NCc1cccc(CN2CCN(CC(=O)O)CCN(Cc3cccc(C#Cc4ccccc4)n3)CCN(CC(=O)O)CC2)n1
2. CC(C)(C#Cc1cccc(CN2CCN(CC(=O)O)CCN(Cc3cccc(CN=[N+]=[N-])n3)CCN(CC(=O)O)CC2)n1)NC(=O)OC(C)(C)C
3. CC(C)(C)C#Cc1cccc(CN2CCN(CC(=O)O)CCN(Cc3cccc(CN=[N+]=[N-])n3)CCN(CC(=O)O)CC2)n1
4. C#Cc1cccc(CN2CCN(CCC(=O)O)CCN(Cc3cccc(CN=[N+]=[N-])n3)CCN(CCC(=O)O)CC2)n1
5. C#CCN(CC#C)CCN1CCN(CC(=O)O)CCN(Cc2cc(-c3ccccc3)cc(CN=[N+]=[N-])n2)CCN(CC(=O)O)CC1
6. C#Cc1cccc(CN2CCN(CP(=O)(O)c3ccccc3)CCN(Cc3cccc(CN=[N+]=[N-])n3)CCN(CP(=O)(O)c3ccccc3)CC2)n1
7. [N-]=[N+]=NCc1cccc(CN2CCN(CC(=O)O)CCN(Cc3cccc(C#CC4CCNCC4)n3)CCN(CC(=O)O)CC2)n1

[84, 1, 93, 0, 12, 26, 91]
